Catalogue of growth readings, one per entry.
Test system: SN12C renal
Assay remarks: NCI-60 one-dose screen, 48 h (100 = growth as untreated, 0 = no growth, -100 = all killed)
Measurement setup: 10 µM
Method: Growth inhibition of the SN12C human tumor cell line is measured as a screen for anti-cancer activity. Cells are grown in 96 well plates and exposed to the test compound for 48 hours. Compounds are tested at a single concentration, which is 10^-5 M for most compounds. The reported endpoint is percent growth (GI% or GIPRCNT), where numbers from 0 - 100% represent growth inhibition, and numbers from -100% - 0 represent cell death. For example, a value of 40 represents 60% growth inhibition. […]
The panel holds about 83,000 compounds, 20% with a hit somewhere; the sample as a whole holds those more often.

>  <Mol>
COc1cc2cc(C(=O)N3C[C@@H](CCl)c4c3cc(OC(=O)N3CCN(C)[C@@H]5CSSC[C@@H]53)c3ccccc43)[nH]c2c(OC)c1OC

>  <Unit annotation>
%

>  <growth>
-44.6

$$$$
>  <Mol>
COC(=O)C[C@](O)(CCCC(C)C)C(=O)O[C@H]1C(OC)=C[C@@]23CCCN2CCc2cc4c(cc2[C@@H]13)OCO4

>  <Unit annotation>
%

>  <growth>
6.06

$$$$
>  <Mol>
C[C@H]1[C@H](OC(=O)CCC(=O)Nc2cnccn2)O[C@@H]2OC3(C)CC[C@H]4[C@H](C)CC[C@@H]1[C@@]24OO3

>  <Unit annotation>
%

>  <growth>
45.3

$$$$
>  <Mol>
O=C(NC([Se])=NC1CCCCC1)c1ccc2c(c1)OCO2

>  <Unit annotation>
%

>  <growth>
51.9

$$$$
>  <Mol>
O=C(/C=C/c1cccc(Br)c1)c1nc2ccccc2n1Cc1ccc(Br)cc1

>  <Unit annotation>
%

>  <growth>
-10.1

$$$$
>  <Mol>
CC[C@]12C=CCN3CC[C@@]4(c5ccc(OC)cc5N(C)[C@H]4[C@@](O)(C(=O)OC)[C@@H]1OC(=O)CCCC[P+](C1CCCCC1)(C1CCCCC1)C1CCCCC1)[C@@H]32

>  <Unit annotation>
%

>  <growth>
-57.9

$$$$
>  <Mol>
CC(=O)Oc1ccccc1C(=O)NC([Se])=NC1CCCCC1

>  <Unit annotation>
%

>  <growth>
-42.7

$$$$
>  <Mol>
COc1cc(OC)c(S(=O)(=O)N(CCCl)CCCl)cc1C(=O)/C=C/c1ccc(C)cc1

>  <Unit annotation>
%

>  <growth>
53.6

$$$$
